target: hKOR (Homo sapiens, UniProt P41145); construct: β-galactosidase enzyme fragment for EFC (ProLink tag of the PathHunter system; name and presence on the receptor from own knowledge); host or cells: U2OS-β-arrestin2-EFC-hKOR (PathHunter) cells; assay: cell-based; conditions: read-out: βarrestin2 Emax;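 also: 100% = maximum response to 10 µM U69,593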
Sequence (P41145 whole entry, the tested form may be a part): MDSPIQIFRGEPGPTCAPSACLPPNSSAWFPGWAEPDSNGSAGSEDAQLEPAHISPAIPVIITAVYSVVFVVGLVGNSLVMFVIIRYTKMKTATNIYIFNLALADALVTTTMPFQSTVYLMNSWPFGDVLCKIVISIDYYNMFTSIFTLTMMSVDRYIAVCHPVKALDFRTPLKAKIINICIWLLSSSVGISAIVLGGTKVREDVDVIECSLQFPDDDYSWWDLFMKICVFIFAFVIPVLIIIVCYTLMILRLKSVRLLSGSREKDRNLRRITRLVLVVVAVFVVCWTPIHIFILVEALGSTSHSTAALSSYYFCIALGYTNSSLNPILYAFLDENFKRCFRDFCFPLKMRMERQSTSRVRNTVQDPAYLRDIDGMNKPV
Assign yes (1) to entries whose Emax meets or exceeds 90%; assign no (0) to the rest.

// below: answered compounds
{"compound": "COC(=O)[C@@H]1C[C@H](OC(C)=O)C(=O)[C@@H]2[C@H]3C[C@@H](c4ccncc4)CC(=O)[C@@H]3CC[C@]21C [compound 21]", "assigned.class": "yes (1)"}
{"compound": "COC(=O)C1CC(OC(C)=O)C(=O)C2C3CC(c4ccccc4)CC(=NO)C3CCC12C (stereo not drawn) [compound 37]", "assigned.class": "no (0)"}
{"compound": "COC(=O)[C@@H]1C[C@H](OC(C)=O)C(=O)[C@@H]2[C@H]3C[C@@H](c4ccoc4)CC(=O)[C@@H]3CC[C@]21C [compound 1, O6C-20-nor-SalA]", "assigned.class": "yes (1)"}

Turning to the following compound.
Evaluate COC(=O)[C@@H]1C[C@H](OC(C)=O)C(=O)[C@@H]2[C@H]3C[C@@H](c4cccc(Cl)c4)CC(=O)[C@@H]3CC[C@]21C [compound 31] : Emax at minimum 90%?
yes (1)

---

target: hKOR (OPRK1) (Homo sapiens); construct: 3HA (triple haemagglutinin tag); expressed in transfected cells; test: cell-based; conditions: CHO, read-out: cAMP Emax
metric: Emax (%)
Answers are plain numbers, in %.

Below, 3 compounds whose answers are already recorded.
{"compound": "COC(=O)[C@@H]1C[C@H](OC(C)=O)C(=O)[C@@H]2[C@H]3C[C@H](c4ccoc4)CC(=O)[C@@H]3CC[C@]21C", "Emax / %": 91}
{"compound": "COC(=O)C1CC(OC(C)=O)C(=O)C2C3CC(c4ccoc4)CC(O)C3CCC12C (stereo not shown) [41b]", "Emax / %": 103}
{"compound": "COC(=O)[C@@H]1C[C@H](OC(C)=O)C(=O)[C@@H]2[C@H]3C[C@@H](c4ccncc4)CC(=O)[C@@H]3CC[C@]21C", "Emax / %": 93}

Below: the item to evaluate.
Please report the recorded Emax for COC(=O)C1CC(OC(C)=O)C(=O)C2C3CC(c4ccccc4)CC(=NO)C3CCC12C (stereo not shown) .
105

---

target: hKOR (Homo sapiens); construct: β-galactosidase enzyme fragment for EFC (ProLink tag of the PathHunter system; name and presence on the receptor from own knowledge); host or cells: U2OS-β-arrestin2-EFC-hKOR (PathHunter) cells; assay: cell-based; conditions: read-out: βarrestin2 Emax
metric: Emax (%)
Numbers only, in %.

Some compounds with known Emax results, for comparison:
{"compound": "COC(=O)[C@@H]1C[C@H](OC(C)=O)C(=O)[C@@H]2[C@H]3C[C@@H](c4cccnc4)CC(=O)[C@@H]3CC[C@]21C [compound 20]", "reading": 88}
{"compound": "COC(=O)[C@@H]1C[C@H](OC(C)=O)C(=O)[C@@H]2[C@H]3C[C@@H](Sc4ccccc4)CC(=O)[C@@H]3CC[C@]21C [compound 33]", "reading": 131}

# context switch: different compound, same Emax
// query Emax value for entry COC(=O)C1CC(OC(C)=O)C(=O)C2C3CC(c4ccccc4)CC(=NOC(C)=O)C3CCC12C (stereo not drawn) [compound 39]
83
